procedureDetails: Solubility in double-distilled water
Format: physicochemical
experimentalSetup: double-distilled water
reportedMetric: Solubility (µg/mL)
Numbers only here, please. The scale is µg/mL.

What does the record list as Solubility for COC(=O)C1C(O)CC2(O)CC(O)CC(O)C(O)CCC(O)CC(O)CC(=O)OC(C)C(C)C(O)C(C)C=CC=CC=CC=CC=CC=CC=CC(OC3OC(C)C(O)C(NC(=O)CCOCCOCCOCCOCCOCCOCCOCCOCCN)C3O)CC1O2 (stereo not shown) ?
700

What does the record list as Solubility for C[C@@H]1[C@H](O)[C@@H](C)/C=C/C=C/C=C/C=C/C=C/C=C/C=C/[C@H](O[C@@H]2O[C@H](C)[C@@H](O)[C@H](NC(=O)CCOCCOCCOCCOCCOCCOCCOCCOCCN)[C@@H]2O)C[C@@H]2O[C@](O)(C[C@@H](O)C[C@@H](O)[C@H](O)CC[C@@H](O)C[C@@H](O)CC(=O)O[C@H]1C)C[C@H](O)[C@H]2C(=O)O [Compound 4, amphotericin B amide-PEG(8)-amine] ?
5500

What does the record list as Solubility for CC1C=CC=CC=CC=CC=CC=CC=CC(OC2OC(C)C(O)C(NC(=O)CCOCCOCCOCCOCCN)C2O)CC2OC(O)(CC(O)CC(O)C(O)CCC(O)CC(O)CC(=O)OC(C)C(C)C1O)CC(O)C2C(=O)O (stereo not shown) ?
300
